Reference for the values: patent US20220185795A1

experiment: Solubility in aqueous phosphate buffer and FaSSIF, pH 6.5; format: physicochemical; settings: Fasted State Intestinal Fluid (FaSSIF) at pH 6.5

>  <COMPOUND>
Cc1nc2ccc(F)cc2n1-c1nc(N)c(F)c(Nc2ccc(C(F)(F)F)cc2)n1 [Form I]

>  <solubility>
~18 µg/mL

$$$$
